- Procedure summary: reversal of MRP1-mediated doxorubicin resistance, pilot screen, H69AR cells, doxorubicin co-treatment (AID 601)
- Measurement conditions: H69AR cells, CellTiter-Glo, 72 h; compound alone cytotoxicity; at 10 µM
Would you mind telling me the reported viability of each entry?
Only the number, expressed in %, is required.

Lookup result for COC(=O)C1=CN(C(C)C)C=C(C(=O)OC)C1c1cc2c(cc1Br)OCO2 ; measured viability: 85.4

Per the record, COc1ccc2c(C(=O)CN(C)C3CCCCC3)c[nH]c2c1 has viability of 64.7

Data point: O=C(c1cnsn1)N1CCN(c2ccccn2)CC1 ; viability = 102

# compound O=C(CN(Cc1ccco1)C(=O)CNS(=O)(=O)c1ccc(Cl)cc1)NCc1ccc(F)cc1 ; its viability = 81.4

For COC(=O)Cc1c(C)nc2nc(-c3ccco3)[nH]n2c1=O the compound record lists viability as 98.7

response.value for N#Cc1c(/N=C/c2cccs2)sc2c1CCCCC2 (field: viability) = 90.3

response.value for CC(C)c1cc(C(=O)NCc2ccco2)no1 (field: viability) = 80.4

// recorded viability for Cc1cc(C)n(-c2cc(N3CCOCC3)nc(-c3ccccc3)n2)n1 : 73.6

Per the records, this compound ( C=CCn1c(=O)[nH]c2cc(C(=O)N3CCN(c4cc(C)ccc4C)CC3)ccc2c1=O ) has viability equal to 41.3

Measured viability of Cc1nc2ccccc2c(=O)n1CC(=O)N1CCOCC1 : 90.4

viability reading for Cc1ccc(C)c(S(=O)(=O)NCc2cccnc2)c1 : 92.8

Values from PubChem BioAssay
